experimental target: CYP2B1 (Rattus norvegicus, UniProt P00176)
assay summary: Mechanism based inhibition of rat cytochrome P450 CYP2B1 measured by 7-ethoxycoumarin O-deethylase activity
Assay type: ADME
details: rat, probe 7-ethoxycoumarin (O-deethylase activity)

smiles data: C#Cc1ccc2ccccc2c1
kinact: 0.0138 s⁻¹

----------
Parameter: Ki. Scope: all listed entries.
experimental target: Cytochrome P450 2C8 (Homo sapiens)
Sequence (P10632 whole entry): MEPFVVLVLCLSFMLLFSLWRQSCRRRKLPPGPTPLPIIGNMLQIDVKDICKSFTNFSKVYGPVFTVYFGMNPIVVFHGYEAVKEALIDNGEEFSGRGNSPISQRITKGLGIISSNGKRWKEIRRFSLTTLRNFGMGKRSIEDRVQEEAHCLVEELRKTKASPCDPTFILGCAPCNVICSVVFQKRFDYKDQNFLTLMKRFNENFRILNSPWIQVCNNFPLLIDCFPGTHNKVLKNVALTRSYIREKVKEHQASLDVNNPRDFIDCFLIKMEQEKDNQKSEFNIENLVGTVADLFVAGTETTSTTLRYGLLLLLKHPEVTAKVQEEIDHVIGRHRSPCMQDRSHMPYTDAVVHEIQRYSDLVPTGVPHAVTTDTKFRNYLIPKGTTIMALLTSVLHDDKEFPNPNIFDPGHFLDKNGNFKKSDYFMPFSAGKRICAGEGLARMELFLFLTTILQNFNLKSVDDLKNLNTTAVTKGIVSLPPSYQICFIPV
endpoint name: Ki

smiles data: CCCCc1oc2ccccc2c1C(=O)c1cc(I)c(OCCN(CC)CC)c(I)c1
experimental result: 1.5 µM
--
smiles data: NNC(=O)c1ccncc1
experimental result: 374 µM
--
smiles data: NNCCc1ccccc1
experimental result: 1.2 µM
--
smiles data: CNCCC=C1c2ccccc2CCc2ccccc21
experimental result: 49.9 µM

----------
experimental target: Cytochrome P450 1A2 (Homo sapiens, UniProt P05177)
Sequence (P05177 whole entry): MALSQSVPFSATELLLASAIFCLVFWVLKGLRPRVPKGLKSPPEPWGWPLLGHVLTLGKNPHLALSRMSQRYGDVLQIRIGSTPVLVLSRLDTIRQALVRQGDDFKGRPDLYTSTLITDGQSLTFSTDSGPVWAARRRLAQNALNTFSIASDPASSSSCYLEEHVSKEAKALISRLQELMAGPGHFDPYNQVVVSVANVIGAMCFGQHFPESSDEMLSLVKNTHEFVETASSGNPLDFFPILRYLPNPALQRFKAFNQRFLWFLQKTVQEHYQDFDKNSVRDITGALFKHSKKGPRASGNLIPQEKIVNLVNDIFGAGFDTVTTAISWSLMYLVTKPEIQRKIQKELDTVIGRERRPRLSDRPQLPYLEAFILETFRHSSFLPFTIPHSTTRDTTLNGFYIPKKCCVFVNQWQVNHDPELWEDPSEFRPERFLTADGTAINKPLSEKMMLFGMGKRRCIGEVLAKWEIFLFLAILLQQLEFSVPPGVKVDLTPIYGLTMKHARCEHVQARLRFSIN
assay summary: Mechanism based inhibition of human cytochrome P450 1A2 measured by 7-methoxyresorufin O-demethylation (MROD)
Type: ADME

smiles data: CC#Cc1ccc(-c2ccccc2)cc1
experimental target: Cytochrome P450 1A2 (Homo sapiens, UniProt P05177)
Ki [nM]: 13

----------
experimental target: Cytochrome P450 2B1 (Rattus norvegicus, UniProt P00176)
assay summary: Mechanism based inhibition of rat cytochrome P450 CYP2B1 measured by 7-EFC O-deethylation activity
Format: ADME
pKi: −log10 of the molar value.
endpoint name: pKi

compound: S=C=NCc1ccccc1 [BENZYL ISOTHIOCYANATE]
endpoint name: pKi
experimental result: 5.24
//
compound: C#CCN(C)[C@H](C)Cc1ccccc1 [SELEGILINE]
endpoint name: pKi
experimental result: 5.98
//
compound: C#CCN(C)CCCOc1ccc(Cl)cc1Cl [CLORGILINE]
endpoint name: pKi
experimental result: 5.82

----------
experimental target: UniProt P20813
Sequence (P20813 whole entry): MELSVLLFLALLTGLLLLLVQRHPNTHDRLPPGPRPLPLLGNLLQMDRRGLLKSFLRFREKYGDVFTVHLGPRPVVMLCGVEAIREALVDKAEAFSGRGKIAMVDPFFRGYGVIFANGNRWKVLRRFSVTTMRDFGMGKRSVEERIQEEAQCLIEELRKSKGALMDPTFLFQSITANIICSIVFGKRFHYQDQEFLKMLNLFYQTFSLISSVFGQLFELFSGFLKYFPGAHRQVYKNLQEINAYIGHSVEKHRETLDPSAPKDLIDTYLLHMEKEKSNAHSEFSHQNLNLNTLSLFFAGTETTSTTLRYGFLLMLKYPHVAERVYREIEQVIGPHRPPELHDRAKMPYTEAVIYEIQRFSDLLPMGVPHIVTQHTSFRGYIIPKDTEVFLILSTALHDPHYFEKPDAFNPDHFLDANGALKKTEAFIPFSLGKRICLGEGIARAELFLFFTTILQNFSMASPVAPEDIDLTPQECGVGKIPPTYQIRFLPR
assay summary: Mechanism based inhibition of human cytochrome P450 2B6 using recombinant CYP2B6

compound: COC(=O)[C@H](c1ccccc1Cl)N1CCc2sccc2C1 [CLOPIDOGREL]
experimental target: UniProt P20813
Ki [nM]: 1100

----------
experimental target: Cytochrome P450 2E1 (Homo sapiens)
Sequence (P05181 whole entry): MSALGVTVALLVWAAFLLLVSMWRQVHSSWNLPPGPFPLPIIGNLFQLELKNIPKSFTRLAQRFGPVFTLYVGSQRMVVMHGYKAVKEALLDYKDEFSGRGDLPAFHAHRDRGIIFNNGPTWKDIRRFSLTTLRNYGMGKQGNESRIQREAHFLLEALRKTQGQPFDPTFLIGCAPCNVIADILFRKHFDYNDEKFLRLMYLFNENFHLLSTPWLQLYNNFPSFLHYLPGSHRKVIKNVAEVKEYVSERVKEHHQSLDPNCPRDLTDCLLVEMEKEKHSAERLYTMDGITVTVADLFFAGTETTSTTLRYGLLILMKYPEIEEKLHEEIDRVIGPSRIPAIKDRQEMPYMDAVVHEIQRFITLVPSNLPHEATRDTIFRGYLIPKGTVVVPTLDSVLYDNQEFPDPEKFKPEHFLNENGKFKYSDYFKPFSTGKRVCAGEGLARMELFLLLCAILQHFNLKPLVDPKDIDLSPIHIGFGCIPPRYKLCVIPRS
assay summary: Mechanism based inhibition of human cytochrome P450 2E1
Assay type: ADME

molecule: S=C=NCCc1ccccc1 [PHENETHYLISOTHIOCYANATE]
experimental target: Cytochrome P450 2E1 (Homo sapiens)
Ki / µM: 9.98

----------
experimental target: Cytochrome P450 1A1 (Rattus norvegicus, UniProt P00185)
Sequence (P00185 whole entry): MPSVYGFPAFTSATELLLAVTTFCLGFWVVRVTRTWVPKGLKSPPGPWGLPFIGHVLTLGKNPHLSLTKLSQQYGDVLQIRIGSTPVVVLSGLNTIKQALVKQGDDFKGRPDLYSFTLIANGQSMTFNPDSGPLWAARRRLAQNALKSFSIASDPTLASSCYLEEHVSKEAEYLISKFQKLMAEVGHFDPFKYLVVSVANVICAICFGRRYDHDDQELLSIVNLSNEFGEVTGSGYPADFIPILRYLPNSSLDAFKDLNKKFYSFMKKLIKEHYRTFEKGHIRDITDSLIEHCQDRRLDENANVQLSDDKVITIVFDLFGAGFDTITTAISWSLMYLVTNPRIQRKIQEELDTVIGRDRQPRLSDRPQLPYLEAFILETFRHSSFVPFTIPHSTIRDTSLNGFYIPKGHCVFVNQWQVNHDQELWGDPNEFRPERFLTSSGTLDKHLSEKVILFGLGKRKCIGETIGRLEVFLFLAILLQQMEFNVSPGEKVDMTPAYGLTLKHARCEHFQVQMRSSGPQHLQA
assay summary: Mechanism based inhibition of rat cytochrome P450 CYP1A1 measured by ethoxyresorufin O-deethylation warfarin R-6 and R-8 hydroxylation
Format: ADME
endpoint name: Ki (nM)

smiles data: O=C(NCCc1ccc([N+](=O)[O-])cc1)C(Cl)Cl
unit spec: nM
experimental result: 2700

----------
experimental target: Cytochrome P450 2D6 (Homo sapiens, UniProt P10635)
Sequence (P10635 whole entry): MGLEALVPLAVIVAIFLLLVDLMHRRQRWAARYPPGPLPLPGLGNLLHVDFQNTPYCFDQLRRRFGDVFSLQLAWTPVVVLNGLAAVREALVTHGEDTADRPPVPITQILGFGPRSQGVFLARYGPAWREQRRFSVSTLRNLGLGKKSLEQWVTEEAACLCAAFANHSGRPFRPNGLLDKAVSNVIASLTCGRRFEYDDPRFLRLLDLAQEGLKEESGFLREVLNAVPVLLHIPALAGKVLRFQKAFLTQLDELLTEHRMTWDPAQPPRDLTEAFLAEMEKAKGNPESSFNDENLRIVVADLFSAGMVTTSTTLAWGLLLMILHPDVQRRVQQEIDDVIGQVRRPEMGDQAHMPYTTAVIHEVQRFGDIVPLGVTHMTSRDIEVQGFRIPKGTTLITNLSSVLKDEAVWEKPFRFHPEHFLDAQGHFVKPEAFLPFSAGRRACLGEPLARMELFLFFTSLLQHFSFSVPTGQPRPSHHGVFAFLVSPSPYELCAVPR
assay summary: Mechanism based inhibition of human cytochrome P450 2D6 measured by […] 1'-hydroxylation
Type: ADME

smiles data: CC(C)(C)NC(=O)[C@@H]1CN(Cc2cnc3occc3c2)CCN1C[C@@H](O)C[C@@H](Cc1ccccc1)C(=O)N[C@H]1c2ccccc2C[C@H]1O
experimental target: Cytochrome P450 2D6 (Homo sapiens, UniProt P10635)
Ki: 32 µM

----------
experimental target: Cytochrome P450 2B11 (Canis lupus familiaris, UniProt P24460)
Sequence (P24460 whole entry): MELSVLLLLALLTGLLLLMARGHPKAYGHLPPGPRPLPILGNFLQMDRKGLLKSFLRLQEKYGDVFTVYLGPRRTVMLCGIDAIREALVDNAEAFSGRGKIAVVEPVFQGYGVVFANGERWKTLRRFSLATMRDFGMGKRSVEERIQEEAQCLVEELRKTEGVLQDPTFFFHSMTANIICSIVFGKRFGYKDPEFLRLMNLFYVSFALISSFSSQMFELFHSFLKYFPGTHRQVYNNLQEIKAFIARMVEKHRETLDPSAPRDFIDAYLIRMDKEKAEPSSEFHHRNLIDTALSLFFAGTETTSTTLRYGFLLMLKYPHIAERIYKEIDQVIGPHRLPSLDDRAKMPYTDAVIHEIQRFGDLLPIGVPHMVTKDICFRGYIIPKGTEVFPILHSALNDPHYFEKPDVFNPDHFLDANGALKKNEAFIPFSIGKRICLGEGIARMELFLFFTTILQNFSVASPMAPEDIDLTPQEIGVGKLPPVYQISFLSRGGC
assay summary: Mechanism based inhibition of dog cytochrome P450 CYP2B11 measured by Diazepam N1-demethylation using recombinant enzyme
Assay type: ADME
pKi: −log10 of the molar value.

compound: CC(Nn1nnc2ccccc21)c1ccccc1 (stereo unspecified)
experimental target: Cytochrome P450 2B11 (Canis lupus familiaris, UniProt P24460)
pKi: 6.46

----------
experimental target: UniProt P00178
assay summary: Mechanism based inhibition of rabbit cytochrome P450 2B4
Type: ADME
details: rabbit

smiles data: CC(C)=CCC/C(C)=C/COc1c2ccoc2cc2oc(=O)ccc12
kinact: 0.00113 s⁻¹

----------
experimental target: UniProt P00178
Sequence (P00178 whole entry): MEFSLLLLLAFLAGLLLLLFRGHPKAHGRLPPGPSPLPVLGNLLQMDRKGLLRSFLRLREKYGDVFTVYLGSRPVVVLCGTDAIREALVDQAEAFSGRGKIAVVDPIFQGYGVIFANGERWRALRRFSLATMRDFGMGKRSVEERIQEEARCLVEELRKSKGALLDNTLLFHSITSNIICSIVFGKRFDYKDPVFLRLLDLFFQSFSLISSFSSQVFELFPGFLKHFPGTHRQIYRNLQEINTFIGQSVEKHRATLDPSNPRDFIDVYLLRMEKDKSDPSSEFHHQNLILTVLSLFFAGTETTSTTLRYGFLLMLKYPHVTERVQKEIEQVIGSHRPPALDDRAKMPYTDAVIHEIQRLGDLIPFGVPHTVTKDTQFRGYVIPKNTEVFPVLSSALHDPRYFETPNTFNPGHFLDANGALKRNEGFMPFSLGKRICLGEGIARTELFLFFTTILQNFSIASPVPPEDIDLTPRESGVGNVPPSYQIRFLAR
assay summary: Mechanism based inhibition of rabbit cytochrome P450 CYP2B4 measured by 7-EFC O-deethylation activity
Assay type: ADME
details: rabbit, probe 7-EFC (O-deethylation)
Parameter: kinact. Scope: all listed entries.

molecule: C#CC(C)(C)C
kinact (s⁻¹): 0.00383
--
molecule: C#CC(C)OC(C)(C)C (configuration not stated)
kinact (s⁻¹): 0.0533

----------
Parameter: Ki. Scope: all listed entries.
experimental target: Cytochrome P450 2B6 (Homo sapiens)
assay summary: Mechanism based inhibition of human cytochrome P450 2B6
Type: ADME

smiles data: CC(C)=CCC/C(C)=C/COc1c2ccoc2cc2oc(=O)ccc12
Ki [µM]: 5.2
//
smiles data: CC(C)(c1ccccc1)N1CCCCC1
Ki [µM]: 1.2
//
smiles data: c1ccc(C2(N3CCCCC3)CCCCC2)cc1
Ki [µM]: 10

----------
experimental target: Cytochrome P450 2B1 (Rattus norvegicus)
Sequence (P00176 whole entry): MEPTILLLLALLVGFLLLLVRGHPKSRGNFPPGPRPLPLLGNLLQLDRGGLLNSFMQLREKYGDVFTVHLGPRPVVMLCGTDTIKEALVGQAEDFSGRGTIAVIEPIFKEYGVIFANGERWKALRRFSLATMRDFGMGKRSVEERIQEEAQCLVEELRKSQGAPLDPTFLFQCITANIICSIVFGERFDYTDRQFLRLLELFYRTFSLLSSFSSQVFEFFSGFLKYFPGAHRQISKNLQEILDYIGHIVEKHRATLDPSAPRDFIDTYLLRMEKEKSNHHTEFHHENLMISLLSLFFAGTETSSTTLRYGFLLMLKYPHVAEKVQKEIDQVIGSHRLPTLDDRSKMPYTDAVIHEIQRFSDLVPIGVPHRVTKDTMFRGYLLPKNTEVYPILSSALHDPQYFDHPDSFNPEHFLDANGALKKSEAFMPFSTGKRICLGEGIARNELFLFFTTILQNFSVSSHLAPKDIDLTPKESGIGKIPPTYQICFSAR
assay summary: Mechanism based inhibition of rat cytochrome P450 CYP2B1 measured by 7-ethoxycoumarin O-deethylase activity
Type: ADME

smiles data: C#Cc1ccc2ccccc2c1
unit spec: nM
Ki: 80
